Test system: Vero
ASSAY_PROTOCOL: Cytotoxicity against african green monkey Vero cells
Assay type: cell-based
RUN_PARAMETERS: chlorocebus sabaeus
# CC50 annotations
Return type: number; implicit unit µM.

*Q* Give the measured CC50 of `COC(=O)N[C@@H](CSC(C)(C)C)C(=O)N1CCC[C@H]1c1ncc(-c2ccc(-c3ccc(-c4cnc([C@@H]5CCCN5C(=O)[C@@H](NC(=O)OC)C(C)C)[nH]4)cc3)cc2)[nH]1` .
*A* 39

*Q* Moving on to `COC(=O)N[C@@H](CSC)C(=O)N1CCC[C@H]1c1ncc(-c2ccc(-c3ccc(-c4cnc([C@@H]5CCCN5C(=O)[C@@H](NC(=O)OC)C(C)C)[nH]4)cc3)cc2)[nH]1`
*A* 18

*Q* Moving on to `COC(=O)N[C@@H](CCSC)C(=O)N1CCC[C@H]1c1ncc(-c2ccc(-c3ccc(-c4cnc([C@@H]5CCCN5C(=O)[C@@H](NC(=O)OC)C(C)C)[nH]4)cc3)cc2)[nH]1`
*A* 40

*Q* Moving on to COC(=O)N[C@@H](C[S+]([O-])Cc1ccccc1)C(=O)N1CCC[C@H]1c1ncc(-c2ccc(-c3ccc(-c4cnc([C@@H]5CCCN5C(=O)[C@@H](NC(=O)OC)C(C)C)[nH]4)cc3)cc2)[nH]1 (stereo partly specified)
*A* 11

###

System: PBMC
ASSAY_PROTOCOL: Cytotoxicity against PBMC (unknown origin)
Assay type: cell-based
MEASUREMENT_TYPE: CC50 (µM)
Return type: number; implicit unit µM.

- COC(=O)N[C@@H](CCSC)C(=O)N1CCC[C@H]1c1ncc(-c2ccc(-c3ccc(-c4cnc([C@@H]5CCCN5C(=O)[C@@H](NC(=O)OC)C(C)C)[nH]4)cc3)cc2)[nH]1: 41
- COC(=O)N[C@@H](CSC(C)(C)C)C(=O)N1CCC[C@H]1c1ncc(-c2ccc(-c3ccc(-c4cnc([C@@H]5CCCN5C(=O)[C@@H](NC(=O)OC)C(C)C)[nH]4)cc3)cc2)[nH]1: 18
- COC(=O)N[C@@H](C[S+]([O-])Cc1ccccc1)C(=O)N1CCC[C@H]1c1ncc(-c2ccc(-c3ccc(-c4cnc([C@@H]5CCCN5C(=O)[C@@H](NC(=O)OC)C(C)C)[nH]4)cc3)cc2)[nH]1 (stereo partly specified): 42
- COC(=O)N[C@@H](CS(=O)(=O)Cc1ccccc1)C(=O)N1CCC[C@H]1c1ncc(-c2ccc(-c3ccc(-c4cnc([C@@H]5CCCN5C(=O)[C@@H](NC(=O)OC)C(C)C)[nH]4)cc3)cc2)[nH]1: 21

*Q* Give the measured CC50 of `COC(=O)N[C@@H](CSC)C(=O)N1CCC[C@H]1c1ncc(-c2ccc(-c3ccc(-c4cnc([C@@H]5CCCN5C(=O)[C@@H](NC(=O)OC)C(C)C)[nH]4)cc3)cc2)[nH]1` .
*A* 31

###

System: CCRF-CEM
ASSAY_PROTOCOL: Cytotoxicity against human CEM cells
Type: cell-based
# CC50 annotations
Return type: number; implicit unit µM.

Use the examples below as a reference point.
- COC(=O)N[C@@H](CCSC)C(=O)N1CCC[C@H]1c1ncc(-c2ccc(-c3ccc(-c4cnc([C@@H]5CCCN5C(=O)[C@@H](NC(=O)OC)C(C)C)[nH]4)cc3)cc2)[nH]1: 11
- COC(=O)N[C@@H](CSCc1ccccc1)C(=O)N1CCC[C@H]1c1ncc(-c2ccc(-c3ccc(-c4cnc([C@@H]5CCCN5C(=O)[C@@H](NC(=O)OC)C(C)C)[nH]4)cc3)cc2)[nH]1: 82
- COC(=O)N[C@@H](C[S+]([O-])Cc1ccccc1)C(=O)N1CCC[C@H]1c1ncc(-c2ccc(-c3ccc(-c4cnc([C@@H]5CCCN5C(=O)[C@@H](NC(=O)OC)C(C)C)[nH]4)cc3)cc2)[nH]1 (stereo partly specified): 11
- COC(=O)N[C@@H](CSC)C(=O)N1CCC[C@H]1c1ncc(-c2ccc(-c3ccc(-c4cnc([C@@H]5CCCN5C(=O)[C@@H](NC(=O)OC)C(C)C)[nH]4)cc3)cc2)[nH]1: 11

Below: the item to evaluate.
*Q* Give the measured CC50 of `COC(=O)N[C@@H](CSC(C)(C)C)C(=O)N1CCC[C@H]1c1ncc(-c2ccc(-c3ccc(-c4cnc([C@@H]5CCCN5C(=O)[C@@H](NC(=O)OC)C(C)C)[nH]4)cc3)cc2)[nH]1` .
*A* 10
